# target-entity: Sigma non-opioid intracellular receptor 1 (Cavia porcellus, UniProt Q60492)
# Sequence (Q60492 whole entry): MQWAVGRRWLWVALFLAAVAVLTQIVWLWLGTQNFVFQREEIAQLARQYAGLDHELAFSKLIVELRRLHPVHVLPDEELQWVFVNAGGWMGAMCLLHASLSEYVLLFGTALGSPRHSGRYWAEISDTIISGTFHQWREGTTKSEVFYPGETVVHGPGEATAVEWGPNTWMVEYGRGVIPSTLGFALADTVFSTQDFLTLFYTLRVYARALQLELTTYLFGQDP
# measurement-protocol: biochemical
# Description: Displacement of [3H](+)-pentazocine from sigma 1 receptor in guinea pig brain homogenates after 1 hr by liquid scintillation counting
endpoint: pKi
// returns pKi (minus log10 of molar concentration), number only

Task: May I ask what pKi has been recorded for OC1(c2ccccc2)CCN(Cc2cc3ccccc3s2)CC1 ?
Output: 8.67

====

endpoint: pKi
Quick note: pKi means taking -log10 of the concentration in moles per liter.

Task: Any idea what pKi came out for COc1ccc2[nH]cc(CN3CCC(O)(c4ccc(Br)cc4)CC3)c2c1 on Sigma non-opioid intracellular receptor 1 (Cavia porcellus, UniProt Q60492)?
Output: 6.97

Task: Give the reported pKi for COc1ccc2[nH]cc(CN3CCC(O)(c4ccc(Cl)cc4)CC3)c2c1 (system: Sigma non-opioid intracellular receptor 1 (Cavia porcellus, UniProt Q60492)).
Output: 6.62

Task: State its pKi on Sigma non-opioid intracellular receptor 1 (Cavia porcellus, UniProt Q60492): OC1(c2ccc(Br)cc2)CCN(Cc2c[nH]c3ccccc23)CC1
Output: 7.92

Task: For Sigma non-opioid intracellular receptor 1 (Cavia porcellus, UniProt Q60492), provide pKi of COc1cccc2[nH]cc(CN3CCC(O)(c4ccc(Br)cc4)CC3)c12 please.
Output: 5.59

====

# target-entity: D(4) dopamine receptor (Homo sapiens, UniProt P21917)
# Sequence (P21917 whole entry): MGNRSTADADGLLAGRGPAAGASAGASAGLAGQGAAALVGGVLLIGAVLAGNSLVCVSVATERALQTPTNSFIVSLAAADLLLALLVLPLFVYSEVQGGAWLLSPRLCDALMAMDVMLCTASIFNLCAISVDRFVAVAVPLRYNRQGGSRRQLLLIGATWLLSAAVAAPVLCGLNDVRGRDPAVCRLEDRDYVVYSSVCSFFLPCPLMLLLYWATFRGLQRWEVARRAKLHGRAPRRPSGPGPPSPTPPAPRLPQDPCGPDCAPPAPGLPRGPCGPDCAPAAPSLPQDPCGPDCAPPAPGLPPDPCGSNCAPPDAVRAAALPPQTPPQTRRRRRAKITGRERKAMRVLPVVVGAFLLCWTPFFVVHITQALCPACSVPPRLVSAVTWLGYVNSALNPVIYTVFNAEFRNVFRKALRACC
Record form. Attribute: pKi. Fill in for each entry.
Remember the convention: pKi equals -log10 of concentration in molar.

Task: Recorded pKi for COc1ccc2[nH]cc(CN3CCC(O)(c4ccc(Br)cc4)CC3)c2c1 , please?
Output: 6.15

Task: Report pKi for COc1cccc2[nH]cc(CN3CCC(O)(c4ccc(Br)cc4)CC3)c12 please.
Output: 6.08

Task: Given the molecule OC1(c2ccc(Br)cc2)CCN(Cc2c[nH]c3ccccc23)CC1 , what is its reported pKi?
Output: 6.19

Task: Quick one: pKi for OC1(c2ccc(Cl)cc2)CCN(Cc2c[nH]c3ccccc23)CC1 ?
Output: 6.35

====

# target-entity: D(3) dopamine receptor (Homo sapiens)
# Sequence (P35462 whole entry): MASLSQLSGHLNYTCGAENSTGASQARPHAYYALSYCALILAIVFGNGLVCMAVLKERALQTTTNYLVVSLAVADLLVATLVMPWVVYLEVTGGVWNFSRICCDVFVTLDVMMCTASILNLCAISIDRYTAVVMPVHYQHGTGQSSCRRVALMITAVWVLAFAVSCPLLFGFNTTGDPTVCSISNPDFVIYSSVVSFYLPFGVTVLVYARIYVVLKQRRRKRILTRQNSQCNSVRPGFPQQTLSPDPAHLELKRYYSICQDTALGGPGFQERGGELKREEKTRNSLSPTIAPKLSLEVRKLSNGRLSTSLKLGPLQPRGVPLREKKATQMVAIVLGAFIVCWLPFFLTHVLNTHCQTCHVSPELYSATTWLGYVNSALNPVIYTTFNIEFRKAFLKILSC
# measurement-protocol: biochemical
pKi: −log10 of the molar value.
Returns one of 1 or 0; 1 when pKi is >= 6.

Task: Please check the record COc1cccc2[nH]cc(CN3CCC(O)(c4ccc(I)cc4)CC3)c12 and state if its pKi is at or above 6.
Output: 1

Task: // inclusive: pKi at least 6? input: OC1(c2ccc(Br)cc2)CCN(Cc2coc3ccccc23)CC1
Output: 1

Task: Record COc1ccc2[nH]cc(CN3CCC(O)(c4ccc(I)cc4)CC3)c2c1 ; criterion: pKi no lower than 6. Met?
Output: 1

Task: Would you say OC1(c2ccc(Br)cc2)CCN(Cc2c[nH]c3ccc(OCCF)cc23)CC1 shows pKi at minimum 6?
Output: 1

Task: Decide: pKi of CN1CN(c2ccccc2)C2(CCN(Cc3coc4ccccc34)CC2)C1=O >= 6?
Output: 1

Task: Reported pKi reaches at least 6 for OC1(c2ccc(I)cc2)CCN(Cc2cc3ccccc3o2)CC1 ?
Output: 1

Task: Identify whether the reported pKi of the following compound is 6 or greater: COc1ccc2[nH]cc(CN3CCC(O)(c4ccccc4)CC3)c2c1
Output: 0

Task: Does pKi meet or surpass 6 for OC1(c2ccccc2)CCN(Cc2cc3ccccc3s2)CC1 ?
Output: 1

Task: Decide: pKi of CSc1ccc(C2(O)CCN(Cc3c[nH]c4ncccc34)CC2)cc1 >= 6?
Output: 0

Task: Is pKi for OC1(c2ccc(Br)cc2)CCN(Cc2c[nH]c3ncccc23)CC1 at or above 6?
Output: 0

Task: Decide: is the reported value of pKi for OC1(c2ccc(I)cc2)CCN(Cc2c[nH]c3ncccc23)CC1 equal to or greater than 6?
Output: 0

Task: Check the entry O=C1N(CCF)CN(c2ccccc2)C12CCN(Cc1coc3ccccc13)CC2 : does pKi equal or exceed 6?
Output: 1

Task: Is the recorded value of pKi equal to or greater than 6 for this compound? O=C1N(Cc2cn(CCF)nn2)CN(c2ccccc2)C12CCN(Cc1coc3ccccc13)CC2
Output: 1
